- System: linezolid- and vancomycin-resistant Enterococcus faecalis (LVRE)
- assay text: In vitro antibacterial activity, broth microdilution (MIC90)
- details: read-out: Antibacterial activity MIC90, LVRE
Lab note: compare MIC with 8 µg/mL, writing class 1 if less and class 0 if equal or more.

Ask: Record C#CCN1CCN(c2ccc(N3C[C@H](Cn4ccnn4)OC3=O)cc2F)C=N1 [Compound 84] : is its MIC strictly below 8 µg/mL?
Result: class 0

Ask: Would you kindly repeat that for COC(=S)NC[C@H]1CN(c2ccc(N3C=NN(CC4CC4)CC3)c(F)c2)C(=O)O1 [Compound 67] ?
Result: class 1

Ask: Ok, now COC(=S)NC[C@H]1CN(c2ccc(N3C=NN(C(=O)COC(C)=O)CC3)c(F)c2)C(=O)O1 [Compound 59]
Result: class 1

Ask: Could you do the same for O=C1O[C@@H](CO)CN1c1ccc(N2C=NNCC2)c(F)c1 [Compound 93] , please?
Result: class 0

Ask: Query O=CN1CCN(c2ccc(N3C[C@H](CO)OC3=O)cc2F)C=N1 [Compound 92] next
Result: class 0

Ask: Next entry: CC(=O)NC[C@H]1CN(c2ccc(N3C=NN(CC(F)(F)F)CC3)c(F)c2)C(=O)O1 [Compound 8]
Result: class 0

Ask: Then what about the molecule O=CN1CCN(c2ccc(N3C[C@H](CNC(=O)C(Cl)Cl)OC3=O)cc2F)C=N1 [Compound 51] ?
Result: class 1

Ask: Check CCOC(=O)CN1CCN(c2ccc(N3C[C@H](CNC(C)=O)OC3=O)cc2F)C=N1 [Compound 24] too.
Result: class 0

Ask: One more molecule: O=CN1CCN(c2ccc(N3C[C@H](CNc4ccon4)OC3=O)cc2F)C=N1 [Compound 85]
Result: class 0

Ask: One more molecule: CN1CCN(c2c(F)cc(N3C[C@H](Cn4ccnn4)OC3=O)cc2F)C=N1 [Compound 104]
Result: class 0

Ask: And O=CN1CCN(c2ccc(N3C[C@H](COc4ccon4)OC3=O)cc2F)C=N1 [Compound 79] ?
Result: class 0

Ask: Also need CC(=S)NC[C@H]1CN(c2ccc(N3C=NN(CC#N)CC3)c(F)c2)C(=O)O1 [Compound 75] , thanks.
Result: class 1

Ask: Would you mind doing O=CN1CCN(c2ccc(N3C[C@H](CNC(=O)c4ccno4)OC3=O)cc2F)C=N1 [Compound 52] as well?
Result: class 0

Ask: Likewise for O=CN1CCN(c2ccc(N3C[C@H](CNC(=S)C(F)F)OC3=O)cc2F)C=N1 [Compound 77] ?
Result: class 1

Ask: Try this molecule next: C=C(Cl)CN1CCN(c2ccc(N3C[C@H](CNC(=S)OC)OC3=O)cc2F)C=N1 [Compound 66]
Result: class 1

Ask: And then CCNC(=O)NC[C@H]1CN(c2ccc(N3C=NN(C=O)CC3)c(F)c2)C(=O)O1 [Compound 44] , what is it?
Result: class 0

Ask: Again, but for COC(=S)NC[C@H]1CN(c2ccc(N3C=NN(C4CCC4)CC3)c(F)c2)C(=O)O1 [Compound 68]
Result: class 1

Ask: Likewise for CC(=O)NC[C@H]1CN(c2ccc(N3C=NN(C(=S)OCCO)CC3)c(F)c2)C(=O)O1 [Compound 32] ?
Result: class 0

Ask: Record: CC(=O)NC[C@H]1CN(c2ccc(N3C=NNCC3)c(F)c2)C(=O)O1 [Compound 2]
Result: class 0

Ask: Do the same for COC(=S)NC[C@H]1CN(c2ccc(N3C=NN(C)CC3)c(F)c2)C(=O)O1 [Compound 60] please
Result: class 1

Ask: Now the same for CC(=O)NC[C@H]1CN(c2ccc(N3C=NN(C(=O)N(CCO)CCO)CC3)c(F)c2)C(=O)O1 [Compound 16]
Result: class 0

Ask: Lookup CN1CCN(c2c(F)cc(N3C[C@H](CNc4ccon4)OC3=O)cc2F)C=N1 [Compound 106]
Result: class 0

Ask: Another molecule to check: O=CN1CCN(c2ccc(N3C[C@H](Cn4ccnn4)OC3=O)cc2)C=N1 [Compound 99]
Result: class 0

---

- Test system: linezolid- and vancomycin-resistant Enterococcus faecalis (LVRE)
- assay text: In vitro antibacterial activity, broth microdilution (MIC90)
- details: read-out: Antibacterial activity MIC90, LVRE
The label label 1 is reserved for MIC strictly under 8 µg/mL; label 0 covers values equal to or above it.

Ask: Does the reported MIC of the following molecule sit strictly below 8 µg/mL? O=CN1CCN(c2ccc(N3C[C@H](CNc4nccs4)OC3=O)cc2F)C=N1
Result: label 0

Ask: And for CC(=S)NC[C@H]1CN(c2ccc(N3C=NNCC3)c(F)c2)C(=O)O1 ?
Result: label 1

Ask: Also CCOC(=O)NC[C@H]1CN(c2ccc(N3C=NN(C=O)CC3)c(F)c2)C(=O)O1 ?
Result: label 0

Ask: Do the same for C#CCN1CCN(c2ccc(N3C[C@H](CNC(=S)OC)OC3=O)cc2F)C=N1 please
Result: label 1

Ask: Consider next the molecule COC(=S)NC[C@H]1CN(c2ccc(N3C=NN(C)CC3)cc2)C(=O)O1 in the same way.
Result: label 0

Ask: Would you mind doing COC(=S)NC[C@H]1CN(c2ccc(N3C=NOCC3)cc2)C(=O)O1 as well?
Result: label 1

Ask: Then this molecule: COC(=S)NC[C@H]1CN(c2ccc(N3C=NN(CCO)CC3)c(F)c2)C(=O)O1
Result: label 1

Ask: What do you have for CC(=S)NC[C@H]1CN(c2ccc(N3C=NN(C=O)CC3)c(F)c2)C(=O)O1 ?
Result: label 1

Ask: Note, next up: CC(=O)NC[C@H]1CN(c2ccc(N3C=NN(C=O)CC3)cc2)C(=O)O1
Result: label 0

Ask: Another molecule to check: CC(=O)NC[C@H]1CN(c2ccc(N3C=NN(S(C)(=O)=O)CC3)c(F)c2)C(=O)O1
Result: label 0

Ask: Record: CC(=O)NC[C@H]1CN(c2ccc(N3C=NN(S(N)(=O)=O)CC3)c(F)c2)C(=O)O1
Result: label 0

Ask: Also COC(=S)NC[C@H]1CN(c2ccc(N3C=NNCC3)c(F)c2)C(=O)O1 , if possible.
Result: label 1

Ask: Next molecule up: CC(=O)NC[C@H]1CN(c2ccc(N3C=NN(C(N)=S)CC3)c(F)c2)C(=O)O1
Result: label 1

Ask: Try CC(=O)NC[C@H]1CN(c2ccc(N3C=NN(CC(N)=O)CC3)c(F)c2)C(=O)O1 next.
Result: label 0

Ask: Can you handle CCOC(=S)NC[C@H]1CN(c2ccc(N3C=NN(C=O)CC3)c(F)c2)C(=O)O1 next?
Result: label 1

Ask: Again, but for O=CN1CCN(c2ccc(N3C[C@H](Cn4ccnn4)OC3=O)cc2F)C=N1
Result: label 0

Ask: Here is the next molecule: O=C(NC[C@H]1CN(c2ccc(N3C=NNCC3)c(F)c2)C(=O)O1)C(F)F
Result: label 0

Ask: Please do the same for CNC(=S)N1CCN(c2ccc(N3C[C@H](CNC(C)=O)OC3=O)cc2F)C=N1 as well.
Result: label 1

Ask: Please give the result for CC(=O)NC[C@H]1CN(c2ccc(N3C=NN(C(C)=O)CC3)c(F)c2)C(=O)O1 too.
Result: label 0

Ask: Next record, please: COC(=S)NC[C@H]1CN(c2ccc(N3C=NOCC3)c(F)c2)C(=O)O1
Result: label 1

Ask: Same lookup for N#CCN1CCN(c2ccc(N3C[C@H](CNC(=O)C(F)F)OC3=O)cc2F)C=N1 , please.
Result: label 0

---

- System: linezolid- and vancomycin-resistant Enterococcus faecalis (LVRE)
- assay text: In vitro antibacterial activity, broth microdilution (MIC90)
- details: read-out: Antibacterial activity MIC90, LVRE
Can you tell me MIC for the items I'm about to list?
Value expressed in µg/mL; do not type the unit.

Ask: Name the reported MIC value associated with the compound O=CN1CCN(c2c(F)cc(N3C[C@H](Cn4ccnn4)OC3=O)cc2F)C=N1
Result: 16

Ask: Entry CC(=S)NC[C@H]1CN(c2ccc(N3C=NN(C(=O)CO)CC3)c(F)c2)C(=O)O1 please
Result: 2

Ask: How about this compound: COC(=S)NC[C@H]1CN(c2ccc(N3C=NN(CC#N)CC3)c(F)c2)C(=O)O1
Result: 4

Ask: Another compound to check: COC(=S)NC[C@H]1CN(c2ccc(N3C=NN(C(=S)OC)CC3)c(F)c2)C(=O)O1
Result: 2

---

- measured on: monoamine oxidase B (MAO B) (Homo sapiens)
- Sequence (P27338 1-520): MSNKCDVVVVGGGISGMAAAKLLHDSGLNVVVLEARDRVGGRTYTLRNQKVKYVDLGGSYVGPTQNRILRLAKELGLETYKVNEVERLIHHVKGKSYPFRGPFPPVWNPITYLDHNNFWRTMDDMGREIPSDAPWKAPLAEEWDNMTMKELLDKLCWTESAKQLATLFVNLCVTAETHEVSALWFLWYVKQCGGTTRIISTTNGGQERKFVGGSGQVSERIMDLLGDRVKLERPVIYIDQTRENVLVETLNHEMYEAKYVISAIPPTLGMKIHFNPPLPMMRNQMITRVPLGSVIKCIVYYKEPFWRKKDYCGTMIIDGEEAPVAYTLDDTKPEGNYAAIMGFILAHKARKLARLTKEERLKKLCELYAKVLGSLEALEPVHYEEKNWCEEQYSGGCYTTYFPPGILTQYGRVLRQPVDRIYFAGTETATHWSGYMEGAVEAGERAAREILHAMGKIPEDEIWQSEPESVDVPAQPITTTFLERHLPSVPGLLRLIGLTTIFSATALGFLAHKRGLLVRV
measurement kind: pIC50
Kindly note that pIC50 refers to -log10 of the concentration in mol/L and answer with the value alone.

Ask: Request - read-out pIC50 | tested on monoamine oxidase B (MAO B) (Homo sapiens) | compound CN1CCN(c2ccc(N3C[C@H](CO)OC3=O)cc2F)C=N1
Result: 3.75

Ask: What do you have for CC(=O)NC[C@H]1CN(c2ccc(N3CCOCC3)c(F)c2)C(=O)O1 [Linezolid, linezolid, reference compound] ?
Result: 5.37

Ask: Next compound: Cn1nnc(-c2ccc(-c3ccc(N4C[C@H](CO)OC4=O)cc3F)cn2)n1 [TR-700, reference compound]
Result: 5.21

Ask: Now consider CN1CCN(c2ccc(N3C[C@H](Cn4ccnn4)OC3=O)cc2F)C=N1 .
Result: 3.68

Ask: Would you mind doing COC(=S)NC[C@H]1CN(c2ccc(N3C=NOCC3)cc2)C(=O)O1 as well?
Result: 4.08
